Tested on: P388
ASSAY_PROCEDURE: Cytotoxicity against mouse P388 cells
Type: functional
CONDITIONS: read-out: ED50 (the source's name)

>  <MOL_SMILES>
Nc1ncnc2c1nnn2[C@@H]1C[C@H](CO)[C@H](O)[C@H]1O

>  <UNIT_TAG>
nM

>  <EC50>
380

$$$$
